- methodDescription: Identifying Small Molecule Inhibitors of Pancreatic Cancer Stem Cells (A278, Adherent) (AID 1259361);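 also: viability read after 48 h compound exposure; nearly all actives have a fitted effect of over 35% in size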
- testContext: series mostly up to 46.1 µM
- Description: Progenitor-like cancer cells, often referred to as cancer stem cells (CSC), are believed to be the drivers of therapeutic resistance and rapid recurrence. CSCs are postulated to reside in specific niches characterized by low oxygen tension, limited nutrient supply, and high redox load. Selectively targeting CSC, alone or in combination with cytotoxic agents, as a means to produce durable remissions is an appealing concept. […]
Results filed as inconclusive are left out. The source made the active and inactive calls. Calls follow the shape of the dose curve; as a rule, active = well fitted cell-killing curve with a large enough effect; inconclusive = small, poorly fitted or top-dose-only effect; inactive = flat fitted curve, though single readings scatter.
assayEndpoint: IC50 (viability decrease)

Fill in: IC50 (viability decrease) of Cc1cnc(Nc2ccc(F)cc2Cl)nc1-c1c[nH]c(C(=O)N[C@H](CO)c2cccc(Cl)c2)c1 is ___
11.8 µM (active)

What does the data say about its IC50 (viability decrease)? Entry: CC(C)C[C@H](NC(=O)CNC(=O)c1cc(Cl)ccc1Cl)B(O)O
0.0166 µM (active)

Request the reported IC50 (viability decrease) associated with Cn1cc(-c2[nH]c3cc(NC(=O)[C@H](N)C4CCCCC4)cc4c3c2C=NNC4=O)cn1
2.64 µM (active)

Look up IC50 (viability decrease): COc1ccc(C=Cc2cc(OC)c(OC)c(OC)c2)cc1O
0.0017 µM (active)

Which IC50 (viability decrease) is reported for this compound? CC(C)(C)OC(=O)Nc1ccc(-c2cc(C(=O)NCCCCCCC(=O)NO)no2)cc1
2.35 µM (active)

Quick check: IC50 (viability decrease) of CC[C@H](CO)Nc1nc(NCc2ccccc2)c2ncn(C(C)C)c2n1 ?
18.7 µM (active)

Bench note: what IC50 (viability decrease) did Cc1cc(Nc2cc(N3CCN(C)CC3)nc(C=Cc3ccccc3)n2)n[nH]1 show?
2.35 µM (active)

State the recorded IC50 (viability decrease) for this entry: CN(C)CC=CC(=O)Nc1cc2c(Nc3ccc(F)c(Cl)c3)ncnc2cc1O[C@H]1CCOC1
23.5 µM (active)

Form field: reported IC50 (viability decrease) of CC1(C)CCC(c2ccc(Cl)cc2)=C(CN2CCN(c3ccc(C(=O)NS(=O)(=O)c4ccc(N[C@H](CCN5CCOCC5)CSc5ccccc5)c(S(=O)(=O)C(F)(F)F)c4)cc3)CC2)C1
23.5 µM (active)
